Listed here: compounds with reported pIC50 for MMP-9 (Homo sapiens, UniProt P14780).
Counter-ions that a name gives are not always drawn.
Please report pIC50 as the negative decimal logarithm of the molar concentration, giving only the number.

Below: 3 compounds and their reported pIC50.
CC#CCOc1ccc(S(=O)(=O)N(C)C(CSCc2cccnc2)C(=O)NO)cc1 (centres unmarked) = 7.85
CC#CCOc1ccc(S(=O)(=O)N2C[C@H](CN)SC(C)(C)[C@@H]2C(=O)NO)cc1 [Example 276, hydrochloride] = 7.19
C#CCNc1ccc(S(=O)(=O)N(C)CC(=O)NO)cc1 = 5.82

# input Entry CC#CCOc1ccc(S(=O)(=O)N(CC#CCN(CC)CC)C(C(=O)NO)C(C)C)cc1 (centres unmarked) has what pIC50?
# output 6.83

# input How about CC#CCOc1ccc(S(=O)(=O)N(C)C(C(=O)NO)C(C)(C)SCCN2CCCC2C(=O)OC)cc1 (centres unmarked) ?
# output 8.15

# input `CC#CCOc1ccc(S(=O)(=O)N(C)[C@@H](C)C(=O)NO)cc1` , same question.
# output 7.17

# input Now give it for CC#CCOc1ccc(S(=O)(=O)N(CC(=O)NO)Cc2cccnc2)cc1 [Example 23, hydrochloride] too.
# output 7.40

# input Also need CC#CCOc1ccc(S(=O)(=O)N(C)C(C(=O)NO)C(C)(C)SCCCN(CC)CC)cc1 (centres unmarked) , thanks.
# output 8.32

###

Molecular target: TACE (Homo sapiens, UniProt P78536)
Sequence (P78536 215-824): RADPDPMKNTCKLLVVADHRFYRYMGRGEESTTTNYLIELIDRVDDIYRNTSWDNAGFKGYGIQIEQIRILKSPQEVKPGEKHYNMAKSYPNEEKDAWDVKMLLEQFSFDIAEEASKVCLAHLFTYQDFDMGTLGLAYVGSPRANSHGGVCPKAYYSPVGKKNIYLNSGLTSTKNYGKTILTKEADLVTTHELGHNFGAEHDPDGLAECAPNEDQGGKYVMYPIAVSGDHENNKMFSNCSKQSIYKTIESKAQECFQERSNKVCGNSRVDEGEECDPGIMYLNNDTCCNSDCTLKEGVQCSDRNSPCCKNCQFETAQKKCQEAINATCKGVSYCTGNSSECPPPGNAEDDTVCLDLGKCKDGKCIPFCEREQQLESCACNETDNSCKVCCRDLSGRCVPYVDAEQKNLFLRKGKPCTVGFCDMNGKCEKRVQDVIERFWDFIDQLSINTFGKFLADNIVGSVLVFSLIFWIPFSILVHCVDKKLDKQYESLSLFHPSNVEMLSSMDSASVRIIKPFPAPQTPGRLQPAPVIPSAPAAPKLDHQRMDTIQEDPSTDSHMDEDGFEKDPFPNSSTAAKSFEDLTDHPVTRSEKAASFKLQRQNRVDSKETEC
Assay: TACE inhibition (fluorescent peptidyl substrate)
Assay type: biochemical
Conditions: read-out: % Inhibition at 1 uM
The reader will find reported inhibition at 1 µM values listed item by item below.
Write the quantity with the unit trailing the number.

CC#CCOc1ccc(S(=O)(=O)N[C@@H](C)C(=O)NO)cc1 [Example 62B] = 46.2%

# input Requested read-out: inhibition at 1 µM. Entry: CC#CCOc1ccc(S(=O)(=O)NCCC(=O)NO)cc1 [Example 69]
# output 48.5%

# input Now try CC#CCOc1ccc(S(=O)(=O)N[C@H](C(=O)NO)[C@@H](C)O)cc1 [Example 100] .
# output 15.4%

# input Consider next the compound CC#CCOc1ccc(S(=O)(=O)N[C@H](C(=O)NO)C(C)C)cc1 [Example 104] in the same way.
# output 38.5%

###

Molecular target: MMP-1 (Homo sapiens)
Sequence (P03956 100-469): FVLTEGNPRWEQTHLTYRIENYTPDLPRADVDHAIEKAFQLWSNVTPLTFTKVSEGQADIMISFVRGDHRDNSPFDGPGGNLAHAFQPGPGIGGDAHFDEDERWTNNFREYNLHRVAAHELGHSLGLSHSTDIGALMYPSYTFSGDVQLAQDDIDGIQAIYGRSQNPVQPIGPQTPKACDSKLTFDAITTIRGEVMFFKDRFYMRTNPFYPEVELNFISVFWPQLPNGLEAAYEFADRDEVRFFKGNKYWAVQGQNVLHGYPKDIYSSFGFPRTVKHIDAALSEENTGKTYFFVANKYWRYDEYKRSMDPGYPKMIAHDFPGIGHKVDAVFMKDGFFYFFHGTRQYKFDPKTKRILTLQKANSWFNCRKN
Counter-ions that a name gives are not always drawn.
attribute.measured: IC50

CC#CCOc1ccc(S(=O)(=O)N(CC(=O)NO)Cc2cccnc2)cc1 [Example 23, hydrochloride] = 1160 nM
CC#CCOc1ccc(S(=O)(=O)N(C)CC(=O)NO)cc1 = 1900 nM
CC#CCOc1ccc(S(=O)(=O)N(C)C(C(=O)NO)C(C)(C)SCCN2CCCC2C(=O)OC)cc1 (centres unmarked) = 18 nM

# input Param readout = IC50; param system = MMP-1 (Homo sapiens); param query = `CC#CCOc1ccc(S(=O)(=O)N(C)[C@@H](C)C(=O)NO)cc1` ; response: value
# output 330 nM

# input Next: CC#CCOc1ccc(S(=O)(=O)N2CCSC(CC)(CC)C2C(=O)NO)cc1 (centres unmarked)
# output 38 nM

This collection of values is drawn from patent EP1144368B1.
